- Tested on: HepG2
- TEST_SUMMARY: Cytotoxicity against human HepG2 cells after 48 hrs by MTT assay
- Format: functional, cell-based
- EXPERIMENTAL_CONDITIONS: Homo sapiens, HepG2, 48 h; read-out: IC50
Recorded IC50 values for a group of molecules are listed next.
Please append the unit to your numeric answer.

In the examples that follow, each entry is paired with its recorded IC50.
O=C(CN1CCSCC1)N1N=C(c2cc3ccccc3oc2=O)CC1c1ccccc1 (stereo not given) :: 8.96 µM
COc1ccccc1C1CC(C)=NN1C(=O)CN1CCC(OC)CC1 (stereo not given) :: 22 µM
CC1=NN(C(=O)c2ccc(C)cc2)C(c2cc(Br)ccc2O)C1 (stereo not given) :: 23.2 µM

GET /values?readout=IC50&item= CC(=O)Oc1ccccc1C1CC(C)=NN1C(=O)CN1CCCC1 (stereo not given)
5.09 µM

GET /values?readout=IC50&item= CC1=NN(C(=O)CCl)C(c2cc(Br)ccc2O)C1 (stereo not given)
16.3 µM

GET /values?readout=IC50&item= CC1=NN(C(=O)CN(CC(C)C)CC(C)C)C(c2ccccc2O)C1 (stereo not given)
49.2 µM

GET /values?readout=IC50&item= CC1=NN(C(=O)CN2CCCC2)C(c2ccccc2O)C1 (stereo not given)
5.54 µM

GET /values?readout=IC50&item= CN1CCN(CC(=O)N2N=C(c3cc4ccccc4oc3=O)CC2c2ccccc2)CC1 (stereo not given)
33.1 µM

GET /values?readout=IC50&item= CC(C)(C)NCC(=O)N1N=C(c2cc3ccccc3oc2=O)CC1c1ccccc1 (stereo not given)
31.4 µM

GET /values?readout=IC50&item= CC[N+](C)(CC)CC(=O)N1N=C(C)CC1c1ccccc1OC (stereo not given)
3.67 µM

GET /values?readout=IC50&item= CC1=NN(C(=O)CN2CCC(c3ccccc3)CC2)C(c2ccccc2O)C1 (stereo not given)
23.3 µM

GET /values?readout=IC50&item= NC(=O)C1CCN(CC(=O)N2N=C(c3cc4ccccc4oc3=O)CC2c2ccccc2)CC1 (stereo not given)
19.3 µM

GET /values?readout=IC50&item= CC1=NN(C(=O)CN2CCN(C(=O)OC(C)(C)C)CC2)C(c2ccccc2O)C1 (stereo not given)
5 µM

GET /values?readout=IC50&item= C=CCN(CC=C)CC(=O)N1N=C(C)CC1c1cc(Br)ccc1O (stereo not given)
7.87 µM
